Test system: giant foxtail
method: Test A preemergence
Type: in vivo, Setaria faberii
setup_conditions: 1000 g ai/ha, 0 to 100 scale, 0 no effect, 100 complete control, approx. 10 days
# reported Foxtail, Giant plant response rating; entries follow
quantity_name: Foxtail, Giant plant response rating

# molecule, reading
measured = [
    ("N#Cc1cn(-c2c(Br)cccc2Oc2ncc(Cl)cn2)nn1 [Compound 116]", 100),
    ("CC(=O)Oc1cccc(Oc2ncc(Cl)cn2)c1-n1cc(Br)cn1 [Compound 67]", 10),
    ("Clc1cnc(Oc2cccc(Br)c2-n2cc(Br)cn2)nc1 [Compound 65]", 100),
    ("CNC(=O)c1cccc(Oc2ncc(Cl)cn2)c1-n1cc(C(F)(F)F)cn1 [Compound 256]", 30),
    ("Clc1cnc(Oc2ccccc2-n2ccnn2)nc1 [Compound 217]", 90),
]

---

Test system: surinam grass
method: Test E preemergence
Format: in vivo, Brachiaria decumbens
setup_conditions: 125 g ai/ha, scale 0 to 100, 0 no effect, 100 complete control
# reported Plant response rating, Surinam Grass; entries follow
quantity_name: Plant response rating, Surinam Grass

# compound, target, reading
records = [
    ("FC(F)(F)c1cnn(-c2c(Cl)cccc2Oc2ncc(Cl)cn2)c1 [Compound 167]", "surinam grass", 0),
    ("N#Cc1cccc(Oc2ncc(Br)cn2)c1-n1cc(I)cn1 [Compound 88]", "surinam grass", 10),
    ("N#Cc1cnn(-c2c(CF)cccc2Oc2ncc(F)cn2)c1 [Compound 151]", "surinam grass", 100),
    ("N#Cc1cccc(Oc2ncc(Br)cn2)c1-n1cc(C(F)(F)F)cn1 [Compound 59]", "surinam grass", 20),
]

---

System: large (Lg) crabgrass
method: Test A postemergence
Format: in vivo, Digitaria sanguinalis
setup_conditions: 1000 g ai/ha, 0 to 100 scale, 0 no effect, 100 complete control
quantity_name: Plant response rating, Crabgrass, Large

# mol, target, reading
data = [
    ("Oc1cccc(Oc2ncc(Cl)cn2)c1-n1cc(Cl)cn1", "large (Lg) crabgrass", 0),
    ("CC(=O)Oc1cccc(Oc2ncc(Cl)cn2)c1-n1cc(Br)cn1", "large (Lg) crabgrass", 10),
    ("Clc1cnc(Oc2ccccc2-n2ccnn2)nc1", "large (Lg) crabgrass", 60),
    ("Brc1cnc(Oc2ccccc2-n2cccn2)nc1", "large (Lg) crabgrass", 90),
]

---

# reported Plant response rating, Pigweed; entries follow
System: pigweed
method: Test A postemergence
Assay type: in vivo, Amaranthus retroflexus
setup_conditions: 500 g ai/ha, 0 to 100 scale where 0 is no effect and 100 is complete control

# mol, Plant response rating, Pigweed
rows = [
    ("FCc1cccc(Oc2ncc(Cl)cn2)c1-n1cc(Br)cn1", 100),
    ("Clc1cnc(Oc2cccc(-c3ccccc3)c2-n2cc(Br)cn2)nc1", 80),
    ("COc1cnc(Oc2cccc(C#N)c2-n2cc(Br)cn2)nc1", 100),
    ("N#Cc1cnn(-c2c(Oc3ncc(Cl)cn3)cccc2C(F)F)c1", 100),
    ("O=Cc1cccc(Oc2ncc(Br)cn2)c1-n1cc(C(F)(F)F)cn1", 80),
    ("CCCc1cnc(Oc2cccc(C#N)c2-n2cc(Br)cn2)nc1", 0),
    ("O=[N+]([O-])c1cnc(Oc2ccccc2-n2cc(Br)cn2)nc1", 0),
    ("N#Cc1cccc(Oc2ncc(Cl)cn2)c1-n1cc(-n2ccc(C(F)(F)F)n2)cn1", 100),
    ("COc1ccc(Br)c(-n2cc(Br)cn2)c1Oc1ncc(Cl)cn1", 40),
]
